- Target or test system: Ectonucleotide pyrophosphatase/phosphodiesterase family member 3 (Homo sapiens)
- Sequence (O14638 whole entry): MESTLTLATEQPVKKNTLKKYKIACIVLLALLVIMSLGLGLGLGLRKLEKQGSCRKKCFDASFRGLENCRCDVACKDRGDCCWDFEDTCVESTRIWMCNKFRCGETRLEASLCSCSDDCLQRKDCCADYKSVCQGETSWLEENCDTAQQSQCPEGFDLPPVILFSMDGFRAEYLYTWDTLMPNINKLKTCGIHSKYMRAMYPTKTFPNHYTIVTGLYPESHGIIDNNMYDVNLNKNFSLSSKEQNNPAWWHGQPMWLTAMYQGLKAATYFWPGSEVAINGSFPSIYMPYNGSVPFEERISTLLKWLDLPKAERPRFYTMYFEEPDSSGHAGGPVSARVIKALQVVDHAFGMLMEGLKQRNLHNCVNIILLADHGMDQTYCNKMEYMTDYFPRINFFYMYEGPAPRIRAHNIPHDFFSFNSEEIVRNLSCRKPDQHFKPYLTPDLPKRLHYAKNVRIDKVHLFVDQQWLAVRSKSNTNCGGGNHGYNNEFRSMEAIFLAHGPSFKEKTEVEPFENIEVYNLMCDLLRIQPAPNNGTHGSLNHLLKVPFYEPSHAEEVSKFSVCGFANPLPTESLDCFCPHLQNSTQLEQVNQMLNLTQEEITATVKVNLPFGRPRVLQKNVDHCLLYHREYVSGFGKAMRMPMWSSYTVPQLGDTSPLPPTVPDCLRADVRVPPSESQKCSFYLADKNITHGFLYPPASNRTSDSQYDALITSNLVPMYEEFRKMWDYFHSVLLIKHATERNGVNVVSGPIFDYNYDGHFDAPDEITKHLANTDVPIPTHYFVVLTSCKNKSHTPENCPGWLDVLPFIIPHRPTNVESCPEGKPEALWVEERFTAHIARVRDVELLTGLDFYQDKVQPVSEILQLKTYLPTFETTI
- Test protocol: Inhibition of human NPP3 expressed in COS-7 cells using pNP-TMP as substrate preincubated for 10 mins followed by substrate addition and measured after 35 mins by microplate reader analysis
Measured attribute: IC50
Hi, when you answer, please include the unit after the number. Thanks!

Lookup result for O=C(Nc1ccc(OS(=O)(=O)c2ccc(F)cc2)cc1)C12CC3CC(CC(C3)C1)C2 ; measured IC50: 740 nM

Item: O=C(Nc1ccc(OS(=O)(=O)c2ccccc2)cc1)C12CC3CC(CC(C3)C1)C2 | IC50: 3000 nM

---

- System: Panel NCI-60 (60 carcinoma cell lines)
- Test protocol: Cytotoxicity against human Panel NCI-60 (60 carcinoma cell lines) assessed as mean growth inhibition
- Format: functional
Give measured inhibition (INH) for each item. Keep answers brief.
Field: numeric (%). Do not append units.

Consider O=C(n1ccc2cc(OS(=O)(=O)c3ccccc3)ccc21)C12CC3CC(CC(C3)C1)C2 . Its measured inhibition (INH) is 88

Lookup result for O=C(Nc1ccc(NS(=O)(=O)c2ccccc2)cc1)C12CC3CC(CC(C3)C1)C2 ; measured inhibition (INH): 97.88

Record O=C(n1ccc2cc(OS(=O)(=O)c3ccc(F)cc3)ccc21)C12CC3CC(CC(C3)C1)C2 . Reported inhibition (INH): 86

inhibition (INH) reported for this compound O=C(Nc1ccc(OS(=O)(=O)c2ccccc2)cc1)C12CC3CC(CC(C3)C1)C2 : 44.5
